Measurement notes: Log P by HPLC on reversed phase columns (EEC directive 79/831 Annex V.A8; methods [a], [b], [c])
Assay type: physicochemical
Measured metric: LogP

Take a look at these entries with their results.
Incoming: # query: LogP of entry COc1c(Cl)ccc(C(O)(Cn2cncc2C#N)C2(F)CC2)c1F (stereo not shown) [I-527]
Outgoing: 2.36^[a]

Incoming: Which measured LogP value corresponds to CC(C)(C)c1ccc(C#CC(O)(Cn2cncc2C#N)C2(Cl)CC2)cc1 (stereo not shown) [I-317] ?
Outgoing: 3.73^[a]

Incoming: I'd like to know its LogP. The molecule in question is N#Cc1cncn1CC(O)(c1ccc(Cl)nc1F)C1(Cl)CC1 (stereo not shown) [I-554]
Outgoing: 2.15^[a]

Incoming: Requested field: LogP. Item: N#Cc1cncn1CC(O)(CC1CC1)c1ccc(F)c(F)c1 (stereo not shown) [I-489]
Outgoing: 2.30^[a]

Incoming: Dear colleague, I am looking for the recorded LogP of the following molecule: CCCCC(O)(Cn1cncc1C#N)c1ccccc1Br (stereo not shown) [I-283]
Outgoing: 2.89^[a]

Incoming: What value of LogP has been reported for the following molecule? N#Cc1cncn1CC(O)(c1ccc(Cl)cc1)C1CC1 (stereo not shown) [I-305]
Outgoing: 2.27^[a]

Incoming: What measured LogP goes with C[Si](C)(C)C#Cc1ccc(C(O)(Cn2cncc2C#N)C2(Cl)CC2)c(Cl)c1 (stereo not shown) [I-366] ?
Outgoing: 4.24^[a]

Incoming: Endpoint output: LogP of COc1ccc(C(O)(Cn2cncc2C#N)C2(F)CC2)c(Cl)n1 (stereo not shown) [I-549] . Value?
Outgoing: 1.99^[a]

Incoming: What measured LogP goes with CC(C)(C)C#Cc1ccc(C(O)(Cn2cncc2C#N)C2(F)CC2)c(Cl)c1 (stereo not shown) [I-642] ?
Outgoing: 3.83^[a]

// next item, LogP requested
Incoming: Entry CC(O)(Cn1cncc1F)c1ccc(Oc2ccc(C(F)F)cc2)nc1C(F)(F)F (stereo not shown) [I-295] : reported LogP = ?
Outgoing: 2.15^[a]

###

pest or weed control at 500 ppm overview
Test system: Septoria tritici
Measurement notes: Example IX-B: in vivo preventive test on Septoria tritici (leaf spot on wheat)
Experimental conditions: Zymoseptoria tritici, 576 h; compounds of formula IX; 500 ppm of active ingredient; wheat plants, preventive spray; evaluated 24 days after inoculation; read-out: efficacy

Solved entries (count: 8):
Incoming: I would be grateful if you could share the reported pest or weed control at 500 ppm for O=C(Cn1cncc1Cl)c1ccc(Oc2ccc(Cl)nc2)cc1Cl [IX-44] .
Outgoing: 90 to 100%

Incoming: So what does the record say about pest or weed control at 500 ppm for O=C(Cn1cncc1Cl)c1ccc(Oc2ccc(Cl)cc2)cc1Br [IX-34] ?
Outgoing: 90 to 100%

Incoming: Report pest or weed control at 500 ppm for N#Cc1cncn1CC(=O)c1ccc(C(F)(F)F)cc1 [IX-117] please.
Outgoing: 90 to 100%

Incoming: Could you tell me which pest or weed control at 500 ppm is on file for N#Cc1cncn1CC(=O)c1ccccc1F [IX-113] ?
Outgoing: 70 to 79%

Incoming: Please look up its pest or weed control at 500 ppm: O=C(Cn1cncc1Cl)c1ccc(Oc2ccc(Cl)cc2)cc1 [IX-21]
Outgoing: 90 to 100%

Incoming: What value of pest or weed control at 500 ppm has been reported for the following compound? N#Cc1cncn1CC(=O)c1ccc(Oc2ccc(Cl)cc2F)nc1C(F)(F)F [IX-128]
Outgoing: 90 to 100%

Incoming: I am curious: what pest or weed control at 500 ppm value has been reported for O=C(Cn1cncc1Cl)c1ccc(Oc2ccc(Cl)cn2)cc1C(F)(F)F [IX-72] ?
Outgoing: 90 to 100%

Incoming: Which value of pest or weed control at 500 ppm has been reported for O=C(Cn1cncc1F)c1ccc(Oc2ccc(Cl)cc2)cc1C(F)(F)F [IX-83] in the records?
Outgoing: 90 to 100%

Read the next record carefully.
Incoming: Dear colleague, I am looking for the recorded pest or weed control at 500 ppm of the following compound: N#Cc1cncn1CC(=O)c1ccc(Oc2ccc(Br)cc2)nc1C(F)(F)F [IX-118]
Outgoing: 90 to 100%
